Assay: in vitro
Assay type: cell-based, human
Details: human, 24 hr assay, single agent, 1% DMSO; read-out: Cytotoxicity IC50
// reported IC50 at 24 h for each item listed

| COMPOUND | UNITS_SYMBOL | IC50 at 24 h |
| --- | --- | --- |
| ClCc1ccccc1 [chloromethyl-benzene, benzylchloride] | µM | 390 |
| N[C@@H](Cc1ccc(N(CCCl)CCCl)cc1)C(=O)O | µM | 250 |

* * *

Tested on: SK-N-SH (NET ++)
Experiment: Cytotoxicity, MTT assay, SK-N-SH
Type: cell-based
Details: 48 hr assay (24 h exposure + 24 h recovery), Table 3; read-out: Cytotoxicity IC50
pIC50: −log10 of the molar value.

| SMILES_DATA | pIC50 |
| --- | --- |
| N=C(N)NCc1cccc(I)c1 | 3.72 |
| N=C(N)NCc1ccc(CCl)c(I)c1 | 4.74 |

* * *

Experiment: in vitro
Format: cell-based, human
Conditions: human, 48 hr assay, + 1 μM cmMIBG added at same time; read-out: Cytotoxicity IC50 of melphalan

| COMPOUND | UNITS_SYMBOL | IC50 at 48 h |
| --- | --- | --- |
| N[C@@H](Cc1ccc(N(CCCl)CCCl)cc1)C(=O)O [Melphalan] | µM | 127 |

* * *

Tested on: MCF7 (NET 0)
Assay: in vitro
Type: cell-based, human
Conditions: 24 hr assay, 1% EtOH; read-out: Cytotoxicity IC50
OBSERVED_PROPERTY: IC50 (µM)

| SMILES_DATA | OBSERVED_MEASUREMENT |
| --- | --- |
| N=C(N)NCc1ccc(CCl)c(I)c1 | 50 |

* * *

System: SK-N-BE(2c) (NET ++++)
Assay: cells
Format: cell-based
OBSERVED_PROPERTY: IC50 (µM)

| COMPOUND | OBSERVED_PROPERTY | OBSERVED_MEASUREMENT |
| --- | --- | --- |
| N=C(N)NCc1ccc(CSC[C@H](NC(=O)CC[C@H](N)C(=O)O)C(=O)NCC(=O)O)c(I)c1 [MIBG-S-Glutathione] | IC50 | 390 |

* * *

System: SK-N-BE(2c) (NET ++++)
Assay: cells
Type: cell-based
Conditions: 24 hr assay, single agent, 1% DMSO; read-out: Cytotoxicity IC50
pIC50: −log10 of the molar value.
OBSERVED_PROPERTY: pIC50

| MOLECULE | OBSERVED_MEASUREMENT |
| --- | --- |
| N=C(N)NCc1ccc(CCl)c(I)c1 [Chloromethyl-MIBG] | 5.24 |
| ClCc1ccccc1 [chloromethyl-benzene, benzylchloride] | 3.76 |

* * *

System: SK-N-SH (NET ++)
Experiment: Cytotoxicity, MTT assay, SK-N-SH
Format: cell-based
Conditions: Homo sapiens, SK-N-SH, read-out: Cytotoxicity IC50, 48 hr assay (24 h exposure + 24 h recovery), Table 3
pIC50: −log10 of the molar value.

| SMILES_DATA | pIC50 |
| --- | --- |
| N[C@@H](Cc1ccc(N(CCCl)CCCl)cc1)C(=O)O | 4.27 |

* * *

System: SK-N-BE(2c) (NET ++++)
Test: cells
Format: cell-based
Conditions: SK-N-BE(2)-C, read-out: Cytotoxicity IC50 of melphalan, 48 hr assay, cells treated with 5 μM cmMIBG for 3 hrs, then melphalan added

| SMILES_DATA | IC50 |
| --- | --- |
| N[C@@H](Cc1ccc(N(CCCl)CCCl)cc1)C(=O)O | 10.2 µM |
